# Test system: HCV replicon system (Huh-luc/neo-ET cell carrying I389luc-ubi-NS3-3'/ET)
# ASSAY_EXPLANATION: Inhibition of the HCV replication by determining the firefly luciferase activity (HCV replicon system)
# Format: cell-based, Hepatitis C virus
# TEST_CONDITIONS: ratio of CC50/IC50

| MOLECULE | EW (CC50/IC50) |
| --- | --- |
| COc1ccc(/C=C/C(=O)OC2C(C)OC(OC(=O)C34CCC(C)(C)CC3C3=CCC5[C@@]6(C)CC[C@H](OC7OC(C(=O)O)C(O)C(O)C7OC7OC(CO)C(O)C(O)C7O)[C@@](C)(C=O)C6CC[C@@]5(C)[C@]3(C)C[C@H]4O)C(OC3OC(C)C(O)C(O)C3OC3OCC(O)C(O)C3O)C2O)cc1 (stereo partly drawn) | 1250 |
| CC(=O)OC1C(OC(=O)C(C)C)C2(CO)C(CC1(C)C)C1=CCC3C4(C)CCC(OC5OC(C)C(OC6OC(C(=O)O)C(O)C(OC7OC(CO)C(O)C(O)C7OC7OC(CO)C(O)C(O)C7O)C6O)C(O)C5O)C(C)(C)C4CCC3(C)C1(C)C(O)C2O (stereo not drawn) | 30.21 |
| C/C=C(/C)C(=O)OC1CC(C)(C)CC2C3=CCC4C5(C)CCC(OC6OC(C)C(OC7OC(C(=O)O)C(O)C(OC8OC(CO)C(O)C(O)C8OC8OC(CO)C(O)C(O)C8O)C7O)C(O)C6O)C(C)(C)C5CCC4(C)C3(C)C(OC(=O)/C=C/C=C/C=C/CCC)C(O)C12CO (stereo not drawn) | 51.28 |
| C[C@@H]1OC(O[C@H]2C(OC(=O)[C@]34CCC(C)(C)C[C@H]3C3=CC[C@@H]5[C@@]6(C)C[C@H](O)[C@@H]7OC8O[C@H](CO)[C@@H](O)[C@H](O)[C@H]8OC8OC[C@H](O)[C@H](O)[C@H]8OC(=O)CC(C)(O)CC(=O)OC[C@H]7[C@@H]6CC[C@@]5(C)[C@]3(C)CC4)OC[C@H](O)[C@@H]2O)[C@H](O)[C@H](OC2OC[C@@H](O)[C@H](O)[C@H]2O)[C@H]1O (stereo partly drawn) | 44.71 |
| C=CC(C)(CC/C=C(\CO)C(=O)OC1CC2(C(=O)OC3OCC(OC4CC(CO)C(O)C(OC5OC(CO)C(OC6OC(C)C(O)C(O)C6O)C(O)C5O)C4O)C(O)C3O)CCC3(C)C(=CCC4C5(C)CCC(OC6OC(CO)C(OC7OC(CO)C(O)C(OC8OCC(O)C(O)C8O)C7O)C(O)C6O)C(C)(C)C5CCC43C)C2CC1(C)C)OC1OC(C)C(O)C(O)C1O (stereo not drawn) | 106.56 |
| C=CC(C)(O)CCCC(C)C(=O)OC1C(C)OC(OC(C)(C=C)CC/C=C(\CO)C(=O)OC2CC3(C(=O)OC4OCC(OC5OC(CO)C(O)C(OC6OC(CO)C(OC7OC(C)C(O)C(O)C7O)C(O)C6O)C5O)C(O)C4O)CCC4(C)C(=CCC5C6(C)CCC(OC7OC(CO)C(OC8OC(CO)C(O)C(OC9OCC(O)C(O)C9O)C8O)C(O)C7O)C(C)(C)C6CCC54C)C3CC2(C)C)C(O)C1O (stereo not drawn) | 156.73 |

###

# Test system: HCV replicon system (Huh-luc/neo-ET cell carrying I389luc-ubi-NS3-3'/ET)
# ASSAY_EXPLANATION: Inhibition of the HCV replication by determining the firefly luciferase activity (HCV replicon system)
# Format: cell-based, Hepatitis C virus
# TEST_CONDITIONS: ratio of CC50/IC50
# Description: HCV replicon system was used to test the effects of compounds on the treatment and prevention of hepatitis C. […] 30 μl/well of the cell suspension was then added to a 96 well white plate (NUNC, 236108) for the measurement of the luciferase activity. Subsequently, 40 μl/well of luminescence analysis buffer and 20 μl/well of luminescence substrate (1 mM D-Luciferin) were added into the 96 well white plates. […]
Measured EW (CC50/IC50) of individual entries

| COMPOUND | EW (CC50/IC50) |
| --- | --- |
| C/C=C(/C)C(=O)OC1CC(C)(C)CC2C3=CCC4C5(C)CCC(OC6OC(C)C(OC7OC(C(=O)O)C(O)C(OC8OC(CO)C(O)C(O)C8OC8OC(CO)C(O)C(O)C8O)C7O)C(O)C6O)C(C)(C)C5CCC4(C)C3(C)C(OC(=O)/C=C/C=C/C=C/CCC)C(OC(C)=O)C12CO (stereo not drawn) | 25.38 |
| C=CC(C)(O)CC/C=C(\C)C(=O)OC1C(O)C(CO)OC(OC(=O)C23CCC(C)(C)CC2C2=CCC4C5(C)CCC(OC6OC(COC7OCC(OC(C)=O)C(O)C7OC7OC(COC(C)=O)C(O)C(O)C7O)C(O)C(O)C6OC6OCC(O)C(O)C6O)C(C)(C)C5CCC4(C)C2(C)C(O)C3O)C1OC1OCC(OC2OCC(O)C(OC3OCC(O)C(O)C3O)C2O)C(O)C1O (stereo not drawn) | 576.67 |
| CC(=O)OCC1OC(OC2COC(OC3COC(OC4C(OC5C(CO)OC(OC6CCC7(C)C(CCC8(C)C7CC=C7C9CC(C)(C)CCC9(C(=O)OC9OC(CO)C(O)C(O)C9OC9OCC(O)C(OC%10OCC(O)(CO)C%10O)C9O)C(O)CC78C)C6(C)C)C(O)C5O)OCC(O)C4O)C(O)C3O)C(O)C2O)C(OC(=O)/C=C/c2ccccc2)C(O)C1OC(C)=O (stereo not drawn) | 2520 |

###

# Tested on: Huh-luc/neo-ET cells
# ASSAY_EXPLANATION: Cell cytotoxic test (MTT) on Huh-luc/neo-ET cells
# Format: cell-based
# TEST_CONDITIONS: concentration for 15% cell kill, two-day culture
# Description: Cell Cytotoxic Test on Huh-luc/noe-ET Cells Huh-luc/neo-ET cells with a concentration of 2.5×10^4 cells/100 μl/well were seeded into a 96 well culture plate (Corning Incorporation COSTAR, 3599) and placed into a cell incubator for culturing. […] After a two-day culture, the medium was removed and each well containing cells was washed by 100 μl of 1×PBS (1 mM KH2PO4, 10 mM Na2HPO4, 137 mM NaCl, 2.7 mM KCl) twice. Precipitates were recorded and PBS was removed. […]
RECORDED_ENDPOINT: CC15 (µM)

| COMPOUND | RECORDED_ENDPOINT | READOUT_QUALIFIER | NUMERIC_RESULT |
| --- | --- | --- | --- |
| C/C=C(/C)C(=O)OC1C(O)C(C)(C)CC2C3=CCC4C5(C)CCC(OC6OC(C(=O)O)C(O)C(OC7OCC(O)C(O)C7O)C6OC6OC(CO)C(O)C(O)C6O)C(C)(C)C5CCC4(C)C3(C)C(OC(C)=O)C(O)C21CO (stereo not shown) | CC15 | = | 6.1 |
| C/C=C(/C)C(=O)OC1CC(C)(C)CC2C3=CCC4C5(C)CCC(OC6OC(C)C(OC7OC(C(=O)O)C(O)C(OC8OC(CO)C(O)C(O)C8OC8OC(CO)C(O)C(O)C8O)C7O)C(O)C6O)C(C)(C)C5CCC4(C)C3(C)C(OC(=O)/C=C/C=C/C=C/CCC)C(OC(C)=O)C12CO (stereo not shown) | CC15 | > | 100 |
| C=CC(C)(O)CC/C=C(\C)C(=O)OC1C(O)C(CO)OC(OC(=O)C23CCC(C)(C)CC2C2=CCC4C5(C)CCC(OC6OC(COC7OCC(O)C(O)C7OC7OCC(O)C(O)C7O)C(O)C(O)C6O)C(C)(C)C5CCC4(C)C2(C)CC3O)C1OC1OC(CO)C(OC2OCC(O)C(OC3OCC(O)C(O)C3O)C2O)C(O)C1O (stereo not shown) | CC15 | = | 7.94 |
| C[C@H]1O[C@@H](O[C@H]2CC[C@@]3(C)[C@@H](CC[C@]4(C)[C@@H]3C=C[C@]35OC[C@@]6(CCC(C)(C)C[C@H]63)[C@@H](O)C[C@]54C)[C@]2(C)CO)[C@H](O)[C@@H](O[C@@H]2O[C@H](CO)[C@@H](O)[C@H](O)[C@H]2O)[C@H]1O | CC15 | = | 12.7 |

###

# Tested on: HCV replicon system (Huh-luc/neo-ET cell carrying I389luc-ubi-NS3-3'/ET)
# ASSAY_EXPLANATION: Inhibition of the HCV replication by determining the firefly luciferase activity (HCV replicon system)
# Type: cell-based, Hepatitis C virus
# TEST_CONDITIONS: Hepatitis C virus, Huh-luc/neo-ET, 48 h; compound concentration 10 μM; 2 days co-culture; luciferase activity; read-out: Inhibition rate (%)

| COMPOUND | VALUE_UNITS | inhibition at 10 µM |
| --- | --- | --- |
| C=CC(C)(O)CC/C=C(\C)C(=O)OCC1OC(OC(=O)C23CCC4(C)C(=CCC5C6(C)CCC(OC7OC(COC8OC(CO)C(O)C(O)C8O)C(OC8OCC(O)C(O)C8OC8OCC(O)C(O)C8O)C(O)C7NC(C)=O)C(C)(C)C6CCC54C)C2CC(C)(C)C(O)C3O)C(OC2OCC(OC3OCC(O)(CO)C3O)C(O)C2O)C(O)C1OC1OC(CO)C(O)C(O)C1O (stereo not shown) | % | 95.3 |
| C[C@@H]1OC(O[C@H]2C(OC(=O)[C@]34CCC(C)(C)C[C@H]3C3=CC[C@@H]5[C@@]6(C)C[C@H](O)[C@@H]7OC8O[C@H](CO)[C@@H](O)[C@H](O)[C@H]8OC8OC[C@H](O)[C@H](O)[C@H]8OC(=O)CC(C)(O)CC(=O)OC[C@H]7[C@@H]6CC[C@@]5(C)[C@]3(C)CC4)OC[C@H](O)[C@@H]2O)[C@H](O)[C@H](OC2OC[C@@H](O)[C@H](O)[C@H]2O)[C@H]1O (stereo partly shown) | % | 96.7 |
| C=CC(C)(O)CC/C=C(\C)C(=O)OC1C(O)C(CO)OC(OC(=O)C23CCC(C)(C)CC2C2=CCC4C5(C)CCC(OC6OC(COC7OCC(OC(C)=O)C(O)C7OC7OC(COC(C)=O)C(O)C(O)C7O)C(O)C(O)C6OC6OCC(O)C(O)C6O)C(C)(C)C5CCC4(C)C2(C)C(O)C3O)C1OC1OCC(OC2OCC(O)C(OC3OCC(O)C(O)C3O)C2O)C(O)C1O (stereo not shown) | % | 96 |
| CC1(C)CC[C@]2(C(=O)O)CCC3=C([C@@H](CCl)C[C@@H]4[C@@]5(C)C[C@H](O)[C@H](O)[C@@](C)(C(=O)O)[C@@H]5CC[C@@]34C)[C@@H]2C1 | % | 41.5 |
| CC1(C)CC[C@]2(C(=O)O)CC[C@]3(C)C(=CCC4[C@@]5(C)C[C@@H](O)[C@H](OC(=O)/C=C/c6ccc(O)cc6)C(C)(C)C5CC[C@]43C)C2C1 (stereo partly shown) | % | 13.6 |
| C=CC(C)(O)CC/C=C(\C)C(=O)OC1C(OCC2OC(OC(=O)C34CCC(C)(C)CC3C3=CCC5C6(C)CCC(OC7OC(COC8OCC(O)C(O)C8OC8OCC(O)C(O)C8O)C(O)C(O)C7O)C(C)(C)C6CCC5(C)C3(C)CC4O)C(OC3OC(C)C(OC4OCC(O)C(OC5OCC(O)C(O)C5O)C4O)C(O)C3O)C(OC(=O)/C(C)=C/CCC(C)(O)C=C)C2O)OC(C)C(O)C1O (stereo not shown) | % | 97.3 |
| CC1(C)CC2C3=CCC4[C@@]5(C)CC[C@H](OC6OCC(O)C(OC7OC(CO)C(O)C(O)C7O)C6O)C(C)(C)C5CC[C@@]4(C)[C@]3(C)C[C@H](O)[C@@]2(CO)[C@H](OC(=O)c2ccccc2)C1 (stereo partly shown) | % | -0.8 |

# credit: patent US9289443B2
